biological target: Human CD3eg linker (human); experiment: SPR; fold vs parent H183/L072
Sequence (chain, as listed by the source limits assumed): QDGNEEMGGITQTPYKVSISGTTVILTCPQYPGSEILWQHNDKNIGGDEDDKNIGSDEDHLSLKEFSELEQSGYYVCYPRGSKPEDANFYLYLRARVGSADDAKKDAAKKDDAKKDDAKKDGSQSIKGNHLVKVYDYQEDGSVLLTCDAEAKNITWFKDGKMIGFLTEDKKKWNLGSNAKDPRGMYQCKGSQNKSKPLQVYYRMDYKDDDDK
Known fold change of affinity of a selection of binders
API: value field is a number in fold; no unit string.

# example entries with known answers
[[record]]
binder = "H183/L072 VL N28Y (antibody, name in Kabat numbering, V domains shown) VH: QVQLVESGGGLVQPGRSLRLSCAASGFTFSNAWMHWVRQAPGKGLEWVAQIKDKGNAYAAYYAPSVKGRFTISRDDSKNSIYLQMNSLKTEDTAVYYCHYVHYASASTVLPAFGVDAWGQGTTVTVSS VL: DIVMTQSPLSLPVTPGEPASISCQASQELVHMYRNTYLHWYQQKPGQAPRLLIYKVSNRFPGVPDRFSGSGSGTDFTLKISRVEAEDVGVYYCAQGTSVPFTFGQGTKLEIK"
metric = "fold change of affinity"
readoutunits = "fold"
valueobserved = 0

[[record]]
binder = "H183/L072 VL A89I (antibody, name in Kabat numbering, V domains shown) VH: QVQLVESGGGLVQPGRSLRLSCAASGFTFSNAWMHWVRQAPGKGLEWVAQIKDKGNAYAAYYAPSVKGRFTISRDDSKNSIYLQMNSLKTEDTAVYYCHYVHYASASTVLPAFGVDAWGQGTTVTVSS VL: DIVMTQSPLSLPVTPGEPASISCQASQELVHMNRNTYLHWYQQKPGQAPRLLIYKVSNRFPGVPDRFSGSGSGTDFTLKISRVEAEDVGVYYCIQGTSVPFTFGQGTKLEIK"
metric = "fold change of affinity"
readoutunits = "fold"
valueobserved = 0


Lab note: next binder to report on.
Q) Which fold change of affinity reading was recorded for the binder H183/L072 VL N28W (antibody, name in Kabat numbering, V domains shown) VH: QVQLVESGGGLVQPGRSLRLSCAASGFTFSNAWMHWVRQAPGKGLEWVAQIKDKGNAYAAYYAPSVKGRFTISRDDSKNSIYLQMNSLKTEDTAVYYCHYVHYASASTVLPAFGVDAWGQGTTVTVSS VL: DIVMTQSPLSLPVTPGEPASISCQASQELVHMWRNTYLHWYQQKPGQAPRLLIYKVSNRFPGVPDRFSGSGSGTDFTLKISRVEAEDVGVYYCAQGTSVPFTFGQGTKLEIK ?
A) 0

Values from patent US20210388087A1
